As shown below, each of these compounds has a reported log10(IC50) value.
molecular target: KRas G12V (Homo sapiens, UniProt P01116, G12V); assay: biochemical;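 note: KRas binding measured by TR-FRET displacement at room temperature, IC50 fitted from percent of control values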
Sequence (P01116 1-169 isoform P01116-2 G12V): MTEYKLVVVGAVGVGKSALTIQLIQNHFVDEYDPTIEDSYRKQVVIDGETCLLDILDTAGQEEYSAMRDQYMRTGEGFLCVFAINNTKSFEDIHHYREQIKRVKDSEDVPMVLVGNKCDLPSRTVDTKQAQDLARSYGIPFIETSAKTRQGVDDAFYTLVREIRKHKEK
Values reflect log10 of reported IC50 (nM).

Recorded log10(IC50), per entry:
[[record]]
compound = "Fc1c(-c2cccc3cccc(F)c23)ncc2c(NCCCc3cc[nH]n3)nc(OCC34CCCN3CCC4)nc12"
assay_value = 3.27

[[record]]
compound = "CC1CC(O)CCN(c2nc(OCC34CCCN3CCC4)nc3c(F)c(-c4cccc5cccc(F)c45)ncc23)C1 (centres unmarked)"
assay_value = 3.61


Problem: Fill in the blank: the reported log10(IC50) of O=C1NC(=O)C2(CCCN(c3nc(OCC45CCCN4CCC5)nc4c(F)c(-c5cccc6cccc(Cl)c56)ncc34)C2)N1 (centres unmarked) is ____.
Solution: 1.18

Problem: Given `O=C(c1cc2n(n1)CCCN(c1nc(OCC34CCCN3CCC4)nc3c(F)c(-c4cccc5cccc(F)c45)ncc13)C2)N1CCC1` , state its recorded log10(IC50).
Solution: 3.26

Problem: Could you share which log10(IC50) value was measured for O=C1CC2(CCCCN(c3nc(OCC45CCCN4CCC5)nc4c(F)c(-c5cccc6cccc(F)c56)ncc34)C2)N1 (centres unmarked) ?
Solution: 3.72

Problem: Would you mind telling me what log10(IC50) value was observed for `Fc1c(-c2cccc3cccc(F)c23)ncc2c(NCc3c[nH]c4ncccc34)nc(OCC34CCCN3CCC4)nc12` ?
Solution: 2.16

Problem: Fill blank: measured log10(IC50) of the compound `Cn1ncc2ccc(Nc3nc(OCC45CCCN4CCC5)nc4c(F)c(-c5cccc6cccc(F)c56)ncc34)cc21` is ____.
Solution: 3.60

----------
system: pERK in MKN1 cells; test: Inhibition of KRas phosphorylation of ERK (Cisbio HTRF pERK assay); settings: Homo sapiens, MKN-1, 3 h, read-out: Inhibition (HTRF IC50) of KRas-mediated Phosphorylation of ERK, MKN1
readout: pIC50
FYI, pIC50 means -log10 of a concentration in mol per litre.

Answered examples (6):
[[record]]
molecule = "Oc1cc(-c2ncc3c(N4CCC[C@]5(C4)C[C@H](O)C5)nc(OC[C@@]45CCCN4C[C@H](F)C5)nc3c2F)c2c(F)c(F)ccc2c1 (single isomer, unassigned)"
assay_value = 8.22

[[record]]
molecule = "CCc1c(F)ccc2cc(O)cc(-c3ncc4c(N5CCCn6nc(C(=O)N(C)CC)cc6C5)nc(OC[C@@]56CCCN5C[C@H](F)C6)nc4c3F)c12"
assay_value = 8.40

[[record]]
molecule = "Oc1cc(-c2ncc3c(N4CC5CC(O)C(C5)C4)nc(OC[C@@]45CCCN4C[C@H](F)C5)nc3c2F)c2c(Br)c(F)ccc2c1 (stereo partly drawn)"
assay_value = 8.52

[[record]]
molecule = "CCc1c(F)ccc2cc(O)cc(-c3ncc4c(NCc5ccc(=O)n(C)c5)nc(OC[C@@]56CCCN5C[C@H](F)C6)nc4c3F)c12"
assay_value = 8.15

[[record]]
molecule = "C[C@@]1(O)CCCN(c2nc(OC[C@@]34CCCN3C[C@H](F)C4)nc3c(F)c(-c4cc(O)cc5ccc(F)c(Cl)c45)ncc23)C1"
assay_value = 8.52

[[record]]
molecule = "CC1(O)COCCN(c2nc(OC[C@@]34CCCN3C[C@H](F)C4)nc3c(F)c(-c4cc(O)cc5ccc(F)c(Cl)c45)ncc23)C1 (stereo partly drawn)"
assay_value = 7.85


We now examine a further molecule.
Problem: // pIC50 lookup, key: C#Cc1c(F)ccc2cc(O)cc(-c3ncc4c(N5CCCC6(CNS(=O)(=O)N6)C5)nc(OC[C@@]56CCCN5C[C@H](F)C6)nc4c3F)c12 (stereo partly drawn)
Solution: 6.28
